assay: self-splicing fitness, log relative to wild type (ln ratio); higher = more splicing; Tetrahymena group I intron in knt gene, E. coli kanamycin selection, DiMSum; sequences stand for … in CUCUCU…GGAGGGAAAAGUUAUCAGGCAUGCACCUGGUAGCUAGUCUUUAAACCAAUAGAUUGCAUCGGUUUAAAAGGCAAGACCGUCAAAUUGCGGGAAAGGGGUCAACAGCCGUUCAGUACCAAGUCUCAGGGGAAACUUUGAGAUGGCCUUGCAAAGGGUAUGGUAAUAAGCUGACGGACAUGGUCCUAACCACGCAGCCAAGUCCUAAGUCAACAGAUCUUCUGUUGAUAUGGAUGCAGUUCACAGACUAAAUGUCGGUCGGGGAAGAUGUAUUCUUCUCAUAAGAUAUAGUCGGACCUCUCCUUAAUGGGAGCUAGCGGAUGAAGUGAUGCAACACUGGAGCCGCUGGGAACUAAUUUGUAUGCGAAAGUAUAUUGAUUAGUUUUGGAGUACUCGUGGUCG; details: 37 °C;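 also: selection with 25 µg/mL kanamycin versus none on LB agar overnight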
// class assignment uses self-splicing fitness (ln) with these ranges: lower: < -2; middle: ≥ -2 and < -1; upper: ≥ -1

Please review the entries below; each comes with its answer.
| Construct sequence | Category |
| --- | --- |
| AAUUAGCAAUAUUACGCAGC | lower |
| CGUUAGCAAUAUUACGUCAA | middle |
| AGGUAGCAAUAUUACGCUCA | upper |

Which band does "GGCUAGCAAUAUUACGAAGU" fall in? middle

Which self-splicing fitness (ln) band matches "CAGUAGCAAUAUUACGACCC" ? upper

State the band of "CUAGAGCAAUAUUACGUAAC" lower

Hi there! Could you help me figure out the category for "UACGAGCAAUAUUACGCGAU" please? lower

Lab note: which band did "CCGUAGCAAUAUUACGAGCG" land in? upper

# bin label for "UGCAAGCAAUAUUACGACAC" middle

Just checking, what class would you give "GAGUAGCAAUAUUACGUAUC" here? upper

In plain terms, what class is "AAAGAGCAAUAUUACGGAAU" ? lower

Would you mind sorting "GAGUAGCAAUAUUACGUAGU" into the appropriate category? lower

Determine which band this sequence sits in: "UUUAAGCAAUAUUACGCCGU" middle

Exam item: assign "UCUAAGCAAUAUUACGGGGU" to the correct category. lower

====

assay: self-splicing fitness, log relative to wild type (ln ratio); higher = more splicing; Tetrahymena group I intron in knt gene, E. coli kanamycin selection, DiMSum; sequences stand for … in CUCUCU…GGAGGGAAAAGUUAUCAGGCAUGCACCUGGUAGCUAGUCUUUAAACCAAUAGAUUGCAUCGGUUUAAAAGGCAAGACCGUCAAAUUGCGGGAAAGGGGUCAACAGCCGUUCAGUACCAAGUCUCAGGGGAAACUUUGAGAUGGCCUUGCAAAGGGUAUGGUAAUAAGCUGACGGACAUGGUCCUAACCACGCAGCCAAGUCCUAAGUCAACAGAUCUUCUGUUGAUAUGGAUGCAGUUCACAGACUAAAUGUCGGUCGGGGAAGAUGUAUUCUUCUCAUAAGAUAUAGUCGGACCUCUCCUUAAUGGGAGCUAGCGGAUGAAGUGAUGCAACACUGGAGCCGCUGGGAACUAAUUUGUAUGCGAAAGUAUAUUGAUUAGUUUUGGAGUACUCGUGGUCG; details: 37 °C
// values below are reported self-splicing fitness (ln)
Output: the number by itself.

| Construct sequence | self-splicing fitness (ln) |
| --- | --- |
| AUUUAGCAAUAUUACGUUUC | -1.91 |

# input for lookup
Consider the sequence shown here: "GUCGAGCAAUAUUACGUCAU" What is its recorded self-splicing fitness (ln)? -1.13
